System: NCI-H460
Experiment: Growth inhibition of human NCI-H460 cells after 48 hrs by sulforhodamine B assay
Type: functional
Conditions: NCI-H460, 48 h
Listed here are compounds together with their documented GI50.

COC(=O)c1sc2cc(-c3ccc(C#N)cc3)cnc2c1N: > 75 µM
COC(=O)c1sc2cc(-c3cccc(N)c3)cnc2c1N: > 150 µM

input: Read the entry COC(=O)c1sc2cc(-c3ccc(OC)nc3)cnc2c1N and write its reported GI50.
output: > 37.5 µM

input: Read the entry COC(=O)c1sc2cc(-c3ccc4ncccc4c3)cnc2c1N and write its reported GI50.
output: > 150 µM

input: Read the entry COC(=O)c1sc2cc(-c3ccc(C(C)=O)cc3)cnc2c1N and write its reported GI50.
output: > 150 µM

input: Read the entry COC(=O)c1sc2cc(-c3ccc(OC)cc3)cnc2c1N and write its reported GI50.
output: > 150 µM

====

Test system: MCF7
Assay: Growth inhibition of human MCF7 cells after 48 hrs by sulforhodamine B assay
Assay type: functional
Settings: MCF7, 48 h
Listed here are molecules together with their documented GI50.

Answered examples (5):
COC(=O)c1sc2cc(-c3ccc(OC)nc3)cnc2c1N: > 37.5 µM
COC(=O)c1sc2cc(-c3ccc4ncccc4c3)cnc2c1N: > 150 µM
COC(=O)c1sc2cc(-c3ccoc3)cnc2c1N: > 120 µM
COC(=O)c1sc2cc(-c3cnc(OC)nc3OC)cnc2c1N: > 75 µM
COC(=O)c1sc2cc(-c3cccc(N)c3)cnc2c1N: > 150 µM

input: Read the entry COC(=O)c1sc2cc(-c3ccc(C#N)cc3)cnc2c1N and write its reported GI50.
output: > 75 µM

input: Read the entry COC(=O)c1sc2cc(-c3ccc(C(F)(F)F)cc3)cnc2c1N and write its reported GI50.
output: > 150 µM

input: Read the entry COC(=O)c1sc2cc(-c3cccnc3)cnc2c1N and write its reported GI50.
output: > 112 µM

input: Read the entry COC(=O)c1sc2cc(-c3ccc(OC)cc3)cnc2c1N and write its reported GI50.
output: > 150 µM

====

Listed here are compounds together with their documented GI50.
System: NCI-H460
Assay: Growth inhibition of human NCI-H460 cells after 48 hrs by sulforhodamine B assay
Assay type: functional
Conditions: NCI-H460, 48 h

Answered examples (4):
COC(=O)c1sc2cc(-c3cnc(OC)nc3OC)cnc2c1N: > 75 µM
COC(=O)c1sc2cc(-c3ccc(C(F)(F)F)cc3)cnc2c1N: > 150 µM
COC(=O)c1sc2cc(-c3ccoc3)cnc2c1N: > 120 µM
COC(=O)c1sc2cc(-c3cnn(C)c3)cnc2c1N: > 150 µM

# context switch: different compound, same GI50
input: Read the entry COC(=O)c1sc2cc(-c3cccnc3)cnc2c1N and write its reported GI50.
output: > 112 µM
